// values below are reported Potency (cAMP, transient hRXFP1 in HEK293)
Molecular target: T1, human RXFP1 (human, UniProt Q9HBX9 1-757)
T1 sequence (looked up): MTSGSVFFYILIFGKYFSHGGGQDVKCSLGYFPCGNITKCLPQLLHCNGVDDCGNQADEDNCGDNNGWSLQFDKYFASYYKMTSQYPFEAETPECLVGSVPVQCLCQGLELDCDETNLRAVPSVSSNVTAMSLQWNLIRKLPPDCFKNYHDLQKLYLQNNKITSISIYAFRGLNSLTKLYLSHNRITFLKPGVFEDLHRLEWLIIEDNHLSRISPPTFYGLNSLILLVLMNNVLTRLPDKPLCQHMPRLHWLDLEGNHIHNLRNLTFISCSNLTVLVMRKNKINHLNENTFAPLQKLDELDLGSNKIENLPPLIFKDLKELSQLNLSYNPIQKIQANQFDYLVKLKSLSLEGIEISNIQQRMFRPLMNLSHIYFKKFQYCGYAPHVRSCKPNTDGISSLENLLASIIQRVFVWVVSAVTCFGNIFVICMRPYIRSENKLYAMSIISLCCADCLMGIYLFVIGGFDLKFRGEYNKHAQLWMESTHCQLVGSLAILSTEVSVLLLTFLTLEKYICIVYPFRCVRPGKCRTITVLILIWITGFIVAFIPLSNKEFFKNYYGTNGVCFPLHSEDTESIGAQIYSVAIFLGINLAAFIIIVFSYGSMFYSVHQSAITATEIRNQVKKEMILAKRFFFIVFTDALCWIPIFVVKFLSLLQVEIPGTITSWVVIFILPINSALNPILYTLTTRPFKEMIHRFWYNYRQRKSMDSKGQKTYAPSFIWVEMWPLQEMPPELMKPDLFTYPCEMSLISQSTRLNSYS
Test: cell-based or functional assay
Reply with just the number (in nM).

Illustrative cases are given below, each with its answer.
binder	reported-measurement
SEQ ID NO: 94 (Fc fusion) DKTHTCPPCPAPEAAGGPSVFLFPPKPKDTLMISRTPEVTCVVVDVSHEDPEVKFNWYVDGVEVHNAKTKPREEQYNSTYRVVSVLTVLHQDWLNGKEYKCKVSNKALAAPIEKTISKAKGQPREPQVYTLPPSRDELTKNQVSLTCLVKGFYPSDIAVEWESNGQPENNYKTTPPVLDSDGSFFLYSKLTVDKSRWQQGNVFSCSVLHEALHSHYTQKSLSLSPGEGGSDSWQEEVIKLCGRELVRAQIAICGKSTASDAAGAEAEAGARQLYSALANKCCHVGCTKRSLAQFC	12.2
SEQ ID NO: 367 (Fc fusion) DKTHTCPPCPAPEAAGGPSVFLFPPKPKDTLMISRTPEVTCVVVDVSHEDPEVKFNWYVDGVEVHNAKTKPREEQYNSTYRVVSVLTVLHQDWLNGKEYKCKVSNKALAAPIEKTISKAKGQPREPQVYTLPPSRDELTKNQVSLTCLVKGFYPSDIAVEWESNGQPENNYKTTPPVLDSDGSFFLYSKLTVDKSRWQQGNVFSCSVLHEALHSHYTQKSLSLSPGGGSDSWMEEVIKLCGRELVRAQIAICGKSTGGEGGGEEGGGEGGQLYSALANKCCHVGCTKRSLARFC	140
SEQ ID NO: 304 (Fc fusion) DKTHTCPPCPAPEAAGGPSVFLFPPKPKDTLMISRTPEVTCVVVDVSHEDPEVKFNWYVDGVEVHNAKTKPREEQYNSTYRVVSVLTVLHQDWLNGKEYKCKVSNKALAAPIEKTISKAKGQPREPQVYTLPPSRDELTKNQVSLTCLVKGFYPSDIAVEWESNGQPENNYKTTPPVLDSDGSFFLYSKLTVDKSRWQQGNVFSCSVLHEALHSHYTQKSLSLSPGKGGSDSWQEEVIKLCGRELVRAQIAICGKSTGGGEGGGEGGGEGRQLYSALANKCCHVGCTKRSLARFC	2.5
SEQ ID NO: 102 (Fc fusion) DKTHTCPPCPAPEAAGGPSVFLFPPKPKDTLMISRTPEVTCVVVDVSHEDPEVKFNWYVDGVEVHNAKTKPREEQYNSTYRVVSVLTVLHQDWLNGKEYKCKVSNKALAAPIEKTISKAKGQPREPQVYTLPPSRDELTKNQVSLTCLVKGFYPSDIAVEWESNGQPENNYKTTPPVLDSDGSFFLYSKLTVDKSRWQQGNVFSCSVLHEALHSHYTQKSLSLSPGEGGSDSWQEEVIKLCGRELVRAQIAICGQSTASDAAGAQADAGARQLYSALANKCCHVGCTKRSLAQFC	7.5

Note: attention shifts to another entry.
Prompt line: Suppose we examine the binder SEQ ID NO: 118 (Fc fusion) DKTHTCPPCPAPEAAGGPSVFLFPPKPKDTLMISRTPEVTCVVVDVSHEDPEVKFNWYVDGVEVHNAKTKPREEQYNSTYRVVSVLTVLHQDWLNGKEYKCKVSNKALAAPIEKTISKAKGQPREPQVYTLPPSRDELTKNQVSLTCLVKGFYPSDIAVEWESNGQPENNYKTTPPVLDSDGSFFLYSKLTVDKSRWQQGNVFSCSVLHEALHSHYTQKSLSLSPGEGGSDSWQEEVIKLCGRELVRAQIAICGQSTASDAAGAQAQAGARQLYSALANKCCHVGCTKQSLAQFC ; what Potency (cAMP, transient hRXFP1 in HEK293) value has been reported?
Response line: 10.1

Data provenance: patent US20250333467A1
